Test system: HI-HeLa cells
Experiment: Cytotoxicity in mock-infected HI-HeLa cells (antirhinoviral assay, XTT)
Assay type: cell-based
Settings: mock-infected HI-HeLa cells; two days; XTT; read-out: CC50
# key: entry, value: CC50

# COMPOUND, ASSAY SYSTEM, CC50
rows = [
    ("CCOC(=O)/C(C)=C/[C@H](CCC(N)=O)NC(=O)[C@H](Cc1ccc(C)cc1)NC(=O)[C@@H](NC(=O)SC1CCCC1)C(C)(C)C [Compound 175]", "HI-HeLa cells", "> 100 µM"),
]

Q) Give reported CC50 value for Cc1cc(CCCCCCCOc2ccc(C3=NCCO3)cc2)on1 [WIN 51711, reference compound]
A) > 60 µM

Q) Give reported CC50 value for CCOP(=O)(/C=C/[C@H](CCC(N)=O)NC(=O)[C@H](Cc1ccccc1)NC(=O)[C@H](CC(C)C)NC(=O)OCc1ccccc1)OCC [Compound 20]
A) > 320 µM

----------
Molecular target: Recombinant Rhinovirus 3C protease (RVP) serotype 16 (Human rhinovirus 16, UniProt Q82122)
Construct: Recombinant Rhinovirus 3C proteases from serotypes 14, 16, 2 or 89; made in house
Sequence (Q82122 1511-1693): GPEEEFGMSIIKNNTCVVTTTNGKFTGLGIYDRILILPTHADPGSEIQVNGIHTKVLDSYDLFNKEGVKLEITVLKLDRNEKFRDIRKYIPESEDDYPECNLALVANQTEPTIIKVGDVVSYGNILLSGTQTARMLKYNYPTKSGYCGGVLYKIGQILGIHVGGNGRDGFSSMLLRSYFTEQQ
Assay: Inhibition of Rhinovirus Protease (fluorescence resonance energy transfer assay), serotype 16
Type: biochemical, human rhinovirus (HRV)
Details: RVP serotype 16; progress curves in enzyme start experiments
# key: entry, value: kobs/I

Below: 4 compounds and their reported kobs/I.
# COMPOUND, kobs/I
data = [
    ("CCOC(=O)/C=C/[C@H](CCC(N)=O)NC(=O)[C@H](Cc1ccccc1)NC(=O)[C@@H](NC(=O)SCC)C(C)(C)C [Compound 167]", "42,100 M-1 sec-1"),
    ("CCOC(=O)/C=C/[C@H](CCC(N)=O)NC(=O)[C@H](Cc1ccc(CCO)cc1)NC(=O)[C@H](CC(C)C)NC(=O)OCc1ccccc1 [Compound 139]", "1,259 M-1 sec-1"),
    ("CCOC(=O)/C=C/[C@H](CCC(N)=O)NC(=O)[C@H](Cc1ccc(OC)cc1)NC(=O)[C@H](CC(C)C)NC(=O)OCc1ccccc1 [Compound 103]", "3,354 M-1 sec-1"),
    ("CCOC(=O)C=CC(CCC(N)=O)NC(=O)C(Cc1ccccc1)NC(=O)C(NC(=O)OCc1ccccc1)C(C)CC (centres unmarked) [Compound 172]", "6,000 M-1 sec-1"),
]

Q) Give reported kobs/I value for CCOC(=O)/C=C/[C@H](CCC(N)=O)NC(=O)[C@H](Cc1ccccc1)NC(=O)[C@H](CC(C)C)NC(=O)SC(C)C [Compound 170]
A) 30,000 M-1 sec-1

Q) Give reported kobs/I value for CCOC(=O)/C=C/[C@H](CCC(N)=O)NC(=O)[C@H](Cc1ccccc1)NC(=O)[C@H](Cc1ccccc1)NC(=O)SCc1ccccc1 [Compound 161]
A) 126,000 M-1 sec-1

Q) Give reported kobs/I value for CCOC(=O)/C=C/[C@H](CCC(N)=O)NC(=O)[C@H](Cc1ccccc1)NC(=O)[C@H](CCc1ccccc1)NC(=O)SCc1ccccc1 [Compound 162]
A) 80,000 M-1 sec-1

----------
Molecular target: Recombinant Rhinovirus 3C protease (RVP) serotype-14 (Human rhinovirus 14, UniProt P03303)
Construct: Recombinant Rhinovirus 3C proteases from serotypes 14, 16, 2 or 89; made in house
Sequence (P03303 1538-1719): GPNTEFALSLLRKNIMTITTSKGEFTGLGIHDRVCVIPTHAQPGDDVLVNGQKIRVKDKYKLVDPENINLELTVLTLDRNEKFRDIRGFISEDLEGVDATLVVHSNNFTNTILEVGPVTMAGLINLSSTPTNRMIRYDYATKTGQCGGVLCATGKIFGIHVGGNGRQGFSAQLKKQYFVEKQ
Experiment: Inhibition of Rhinovirus Protease (fluorescence resonance energy transfer assay), serotype 14
Assay type: biochemical, human rhinovirus (HRV)
Details: RVP serotype-14; progress curves in enzyme start experiments
# key: entry, value: kobs/I

# MOLECULE, kobs/I
records = [
    ("CCOC(=O)/C=C/[C@H](CCC(N)=O)NC(=O)[C@H](CC(C)C)NC(=O)[C@H](CC(C)C)NC(=O)OCc1ccccc1", "2,309 M-1 sec-1"),
    ("CCOC(=O)/C=C/[C@H](CCC(N)=O)NC(=O)[C@H](CC1CCCCC1)NC(=O)[C@H](CC(C)C)NC(=O)OCc1ccccc1", "16,270 M-1 sec-1"),
    ("CCOC(=O)/C(C)=C/[C@H](CCC(N)=O)NC(=O)[C@H](Cc1ccc(F)cc1)NC(=O)[C@@H](NC(=O)SC1CCCC1)C(C)(C)C", "80,300 M-1 sec-1"),
    ("CC(C)C[C@H](NC(=O)OCc1ccccc1)C(=O)N[C@@H](Cc1ccccc1)C(=O)N[C@H](/C=C/C(=O)N1CCc2cccc(S(C)(=O)=O)c21)CCC(N)=O", "<1000 M⁻¹ s⁻¹"),
    ("CCOC(=O)C=CC(CCC(N)=O)NC(=O)C(Cc1ccccc1)NC(=O)C(NC(=O)SC1CCCC1)C(C)(C)[S+](C)[O-] (mixture of isomers)", "300,000 M-1 sec-1"),
]

Q) Retrieve kobs/I on Recombinant Rhinovirus 3C protease (RVP) serotype-14 (Human rhinovirus 14, UniProt P03303); query CCOC(=O)/C=C/[C@H](CCC(N)=O)NC(=O)[C@@H](NC(=O)[C@H](CC(C)C)NC(=O)OCc1ccccc1)C(C)O (some centres unmarked)
A) 1,769 M-1 sec-1

Q) Retrieve kobs/I on Recombinant Rhinovirus 3C protease (RVP) serotype-14 (Human rhinovirus 14, UniProt P03303); query CCOC(=O)C=CC(CCC(N)=O)NC(=O)C(Cc1ccccc1)NC(=O)C(NC(=O)OCc1ccccc1)c1ccccc1 (centres unmarked)
A) 20,650 M-1 sec-1
